- system: JAK3 (Homo sapiens)
- Sequence (P52333 1-1124): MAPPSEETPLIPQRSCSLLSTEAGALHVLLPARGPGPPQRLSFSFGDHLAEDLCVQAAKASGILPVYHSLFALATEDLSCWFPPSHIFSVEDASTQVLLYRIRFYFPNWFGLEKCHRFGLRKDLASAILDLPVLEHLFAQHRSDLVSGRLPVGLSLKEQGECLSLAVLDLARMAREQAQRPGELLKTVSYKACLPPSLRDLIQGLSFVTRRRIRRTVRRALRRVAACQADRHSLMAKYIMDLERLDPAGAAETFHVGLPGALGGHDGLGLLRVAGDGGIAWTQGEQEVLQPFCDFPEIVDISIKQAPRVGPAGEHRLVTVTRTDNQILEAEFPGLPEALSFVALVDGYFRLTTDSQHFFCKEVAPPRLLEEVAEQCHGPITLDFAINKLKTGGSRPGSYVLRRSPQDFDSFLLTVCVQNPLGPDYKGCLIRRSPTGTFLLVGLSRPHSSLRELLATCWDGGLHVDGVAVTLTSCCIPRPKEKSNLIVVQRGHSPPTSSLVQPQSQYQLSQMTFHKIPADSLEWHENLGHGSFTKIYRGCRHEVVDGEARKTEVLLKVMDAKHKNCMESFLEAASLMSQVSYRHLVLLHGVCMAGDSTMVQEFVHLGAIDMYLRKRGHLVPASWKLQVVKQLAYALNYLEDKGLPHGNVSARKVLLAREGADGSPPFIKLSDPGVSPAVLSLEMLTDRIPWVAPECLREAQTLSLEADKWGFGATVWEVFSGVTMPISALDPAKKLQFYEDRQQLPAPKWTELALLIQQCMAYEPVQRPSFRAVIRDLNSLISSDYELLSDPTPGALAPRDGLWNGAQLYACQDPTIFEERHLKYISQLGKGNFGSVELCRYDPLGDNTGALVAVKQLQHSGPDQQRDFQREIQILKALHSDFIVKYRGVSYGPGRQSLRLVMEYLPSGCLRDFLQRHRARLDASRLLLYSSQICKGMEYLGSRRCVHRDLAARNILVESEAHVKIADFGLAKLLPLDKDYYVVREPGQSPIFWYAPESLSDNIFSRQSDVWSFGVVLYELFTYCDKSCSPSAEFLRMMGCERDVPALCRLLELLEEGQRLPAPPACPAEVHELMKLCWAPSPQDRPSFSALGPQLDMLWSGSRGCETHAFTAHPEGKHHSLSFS
pKi: −log10 of the molar value.
outcome-measure: pKi

> print(dat)
                                   molecule     obs.value
1  O=C(CCc1ccccc1)Nc1nc(-c2ncnc3[nH]ccc23)cs1        > 7.00
2  C[C@@H]1CC[C@H](C)N1C(=O)c1cc(-c2ncnc3[nH]ccc23)c[nH]1  6.30 to 7.00
3      CC(C)Cn1cc(-c2ncnc3[nH]cc(Cl)c23)cn1  6.30 to 7.00
4  O=C(NCc1ccccc1)c1cc(-c2ncnc3[nH]ccc23)c[nH]1        > 7.00
5  CC(CC(F)(F)F)C(=O)Nc1nc(-c2ncnc3[nH]ccc23)cs1 (stereo not drawn)        > 7.00

State the recorded pKi for every item in the following list.
1. CCN(Cc1ccccc1)C(=O)c1cc(-c2ncnc3[nH]cc(Cl)c23)c[nH]1
2. COC(=O)C1C2C=CC(C2)C1C(=O)Nc1nc(-c2ncnc3[nH]ccc23)cs1 (stereo not drawn)
3. CN1CC(C(=O)Nc2nc(-c3ncnc4[nH]ccc34)cs2)CC1=O (stereo not drawn)
4. Cc1c[nH]c2ncnc(-c3cnn(CCC(C)C)c3)c12

Given back:
> 7.00
6.30 to 7.00
6.30 to 7.00
6.30 to 7.00
